Target: Epidermal growth factor receptor (Homo sapiens) (UniProt P00533)
Sequence (P00533 whole entry, looked up): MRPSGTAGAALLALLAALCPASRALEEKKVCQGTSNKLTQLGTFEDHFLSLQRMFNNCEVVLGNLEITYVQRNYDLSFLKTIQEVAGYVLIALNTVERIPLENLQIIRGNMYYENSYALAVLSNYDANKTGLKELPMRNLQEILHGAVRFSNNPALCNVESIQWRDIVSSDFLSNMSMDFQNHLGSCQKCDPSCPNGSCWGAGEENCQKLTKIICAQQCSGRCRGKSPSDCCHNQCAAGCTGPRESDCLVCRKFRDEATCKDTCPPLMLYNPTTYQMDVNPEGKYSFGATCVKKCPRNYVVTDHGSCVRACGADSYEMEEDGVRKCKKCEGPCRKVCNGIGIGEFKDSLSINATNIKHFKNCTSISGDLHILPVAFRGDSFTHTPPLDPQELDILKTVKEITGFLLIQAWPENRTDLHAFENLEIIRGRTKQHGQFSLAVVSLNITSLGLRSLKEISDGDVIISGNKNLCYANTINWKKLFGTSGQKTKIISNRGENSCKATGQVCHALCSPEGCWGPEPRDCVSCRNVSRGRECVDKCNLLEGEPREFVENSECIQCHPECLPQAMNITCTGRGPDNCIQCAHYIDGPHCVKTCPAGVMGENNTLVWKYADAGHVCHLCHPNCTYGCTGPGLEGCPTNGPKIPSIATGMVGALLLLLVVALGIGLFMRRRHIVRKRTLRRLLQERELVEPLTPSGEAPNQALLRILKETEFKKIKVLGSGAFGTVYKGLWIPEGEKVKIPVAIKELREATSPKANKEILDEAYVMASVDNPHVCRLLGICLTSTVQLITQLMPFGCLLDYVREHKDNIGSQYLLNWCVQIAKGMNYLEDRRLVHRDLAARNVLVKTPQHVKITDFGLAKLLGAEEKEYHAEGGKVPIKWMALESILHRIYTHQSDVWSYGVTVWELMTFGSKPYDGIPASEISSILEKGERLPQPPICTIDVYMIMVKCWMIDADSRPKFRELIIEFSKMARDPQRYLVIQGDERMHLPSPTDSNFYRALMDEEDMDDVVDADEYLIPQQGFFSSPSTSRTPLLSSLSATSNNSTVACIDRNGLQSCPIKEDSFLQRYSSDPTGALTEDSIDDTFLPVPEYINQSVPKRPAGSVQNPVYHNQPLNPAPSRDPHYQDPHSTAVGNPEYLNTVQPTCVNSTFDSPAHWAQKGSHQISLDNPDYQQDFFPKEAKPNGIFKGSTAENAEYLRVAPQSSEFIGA
Assay: EGFR binders on small-molecule microarrays, primary screen, biochemical, small-molecule microarray, 635 nm fluorescence (AID 1104);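 further: score merges 667 nm emission intensity with spot signal to noise over triplicate slides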
Details: EGFR binding, higher = more signal
Cut-off -0.2 on composite z-score, inclusive. At or above means t; below means f.

Compound	Group label
CCCC[C@@H]1C[C@H]1[C@@H](NC(=O)c1ccc(C(F)(F)F)cc1)c1ccc(C(=O)OC)cc1	t
NCCCC[C@@H]1NC(=O)[C@H]2C[C@@H](C(=O)NCc3ccc(F)cc3)[C@@H](c3cccc(OCCO)c3)N2C1=O	t
CC(=O)NCCCC[C@@H]1NC(=O)[C@H]2C[C@@H](C(=O)NCCCCCC[N+](C)(C)C)[C@@H](c3ccc(O)cc3)N2C1=O	t
[N-]=[N+]=NCc1ccccc1C[C@]1(C(=O)N2CCCCC2)N=C(c2ccc(OCCCO)cc2)O[C@H]1c1ccccc1	f
CCCC[C@@H]1C[C@H]1[C@@H](NC(=O)Cc1ccccc1)c1ccc(Cl)cc1	t
COC(=O)c1c(CC[C@@H](CO)NC(=O)N[C@@H](Cc2ccccc2)Cn2cc(-c3cncn3C)nn2)oc(C(C)=O)c1C(=O)OC	f

Threshold query (composite z-score >= -0.2) on `COC(=O)[C@@]1(CCC(=O)OC(C)(C)C)N=C(c2ccc(OCCCO)cc2)O[C@H]1c1ccccc1CN=[N+]=[N-]` f

Quick check, composite z-score >= -0.2? C=CCC(OC(C)=O)[C@@H]1[C@@H](N(Cc2cc3ccccc3o2)C(=O)c2ccc(-c3ccccc3)cc2)c2cc(OCCCO)ccc2N1C(=O)c1ccc2ccccc2n1 (some centres undefined) t

Please tell me: is the compound `CCCCCCc1nc(-c2ccc(OC)nc2)cc2c1[Si](C(C)C)(C(C)C)OC2` at or over -0.2 in terms of composite z-score? f

Does the compound `COCC(=C=CC[C@@H](O)c1cccc(OCCO)c1)C[C@@H](O)COCc1ccccc1` have recorded composite z-score that is -0.2 or more? f

Kindly determine if composite z-score recorded for `CN1C(=O)[C@]2(CCC(=O)OC(C)(C)C)N=C(c3ccc(OCCCO)cc3)O[C@@H]2c2ccccc21` is above or exactly -0.2. t

Kindly determine if composite z-score recorded for `C=CC[C@@]1(C(=O)O)N=C(c2ccc(OCCCO)cc2)O[C@@H]1c1ccccc1CN=[N+]=[N-]` is above or exactly -0.2. t

Record CC(C)C[C@H]1NC(=O)[C@@]23C(=O)N[C@@H](Cc4ccccc4)C2[C@H](C)[C@@]2(C)O[C@H]2C3/C=C/C/C=C\CNC(=O)[C@@H]2CCCN2C1=O (some centres undefined) ; criterion: composite z-score no lower than -0.2. Met? t

---

Test system: Fibrinogen (Alexa647-labelled)
Assay: fibrinogen binders on compound microarrays, profiling panel, artefact control for SMM control-protein annotation, biochemical, small-molecule microarray, 635/667 nm fluorescence (AID 1131);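 further: z-score merges 667 nm fluorescence with per-spot signal-to-noise over triplicate slides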
Settings: fibrinogen-A647 binding fluorescence, higher = more signal
Measured composite z-score, listed per entry for reference.
Respond using a number only.

Molecule	composite z-score
COc1ccc(CCNC(=O)[C@@]2(Sc3ccc(C)cc3)CC(=O)N(Cc3cc(C(F)(F)F)cc(C(F)(F)F)c3)[C@@H]2c2ccc(CO)cc2)cc1	-1.07
CCN(CC)c1ccc(N2CC=CC34O[C@@H]5C=CCOC(=O)[C@@H]5[C@H]3C(=O)N(CCO)[C@@H]4C2=O)cc1 (stereo partly specified)	-0.602
C[C@@H](OCc1ccccc1)C1NC(=O)[C@@]23C(=O)N[C@@H](Cc4ccccc4)C2[C@H](C)[C@@]2(C)O[C@H]2C3/C=C/C/C=C\CNC(=O)[C@H](Cc2ccccc2)NC1=O (stereo partly specified)	0.569
C=CCC(OC(C)=O)[C@@H]1[C@@H](N(Cc2ccc(-c3ccccc3)cc2)C(=O)c2ccc(-c3ccccc3)cc2)c2cc(OCCCO)ccc2N1C(=O)c1ccc2ccccc2n1 (stereo partly specified)	-0.239
COC(=O)[C@@]1(Cc2ccc(F)cc2)[C@H]2c3cc(C(=O)N(C)C)n(CCO)c3C[C@H]2CN1C(=O)c1ccccc1	0.797

# context switch: different molecule, same composite z-score
Item O=C1OCCC/C=C\[C@H]2OC34C=CCN(Cc5ccccc5)C(=O)[C@H]3N(CCCCCO)C(=O)[C@@H]4C12 (stereo partly specified) has what recorded composite z-score? -1.62

---

The following compounds are listed with their measured composite z-score values.
Experiment: small-molecule binders of probe aInhba, primary screen, biochemical, small-molecule microarray, 635/667 nm fluorescence (AID 1148);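 further: score merges 667nm spot fluorescence with signal-to-noise for antibody binding to printed compounds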
Conditions: higher = more signal
Respond numerically, and do not add a unit to the figure.

Consider the reported composite z-score for these compounds:
Compound	composite z-score
COc1ccc(NN2C(C(O)c3ccc(OC)cc3)C=CC3C(=O)N(C4CCCCC4)C(=O)C32)cc1 (stereo not given)	-0.0313
CC(c1ccccc1)C(O)C1C=CC2C(=O)N(c3ccccc3)C(=O)C2N1Nc1ccc(C#N)cc1 (stereo not given)	0.179
CC(C)CNC(=O)[C@@H]1c2ccccc2C(=O)N(CC23CC4CC(CC(C4)C2)C3)[C@H]1c1ccc(CO)cc1	-0.212
CC(=O)NCCCC[C@@H]1NC(=O)[C@@H]2C[C@H](C(=O)NCCCCCC[N+](C)(C)C)[C@H](c3ccc(O)cc3)N2C1=O	-0.105
O=C1C2C=CC(C(O)c3cccc(O)c3)N(Nc3ccccc3F)C2C(=O)N1c1ccccc1 (stereo not given)	-0.21

Which composite z-score is listed for CCOC(=O)C1=CCC(c2cc3ccccc3[nH]2)N(S(=O)(=O)c2ccccc2[N+](=O)[O-])C1 (stereo not given) ? -0.101

Name the reported composite z-score value associated with the compound `COc1cccc(C[C@H]2C[C@@H](CO[Si](C(C)C)(C(C)C)C(C)C)N3C(=O)[C@@]4(C(C)=O)O[C@@]23[C@@H]2C(=O)N(C)C(=O)[C@@H]24)c1` 0.2

Looking for the measured composite z-score of `COc1ccc([Si](C)(C)[C@H]2[C@H](CCn3cc([C@H](O)c4ccccc4)nn3)O[C@@]3(C(=O)N(C)c4c(Br)cc(C)cc43)[C@@H]2C)cc1` , can you help? -0.208

Give the measured composite z-score of `C=C(/C(=C/C[C@H](OC(=O)c1ccncc1)c1ccccc1OCCO)c1cc(C(=O)OC)ccc1OC)C(C)C` . -0.0375

Find the recorded composite z-score belonging to `CCCC[C@@H]1C[C@H]1[C@@H](NC(=O)Cc1ccccc1)c1ccc(Cl)cc1` and report it. -0.0002

Record request: composite z-score value, item `C=C(COC)/C(=C/C[C@H](OC(=O)c1ccncc1)c1cccc(OCCO)c1)c1cnc2ccccc2c1` 0.322

Return reported composite z-score; argument: CC(=O)c1ccc(C(O)C2C=CC3C(=O)NC(=O)C3N2Nc2ccc(Cl)cc2Cl)cc1 (stereo not given) 0.0565

For the compound `CN(C)CCCC[C@@H]1NC(=O)[C@H]2C[C@@H](C(=O)O)[C@@H](c3cccc(OCCO)c3)N2C1=O` , what composite z-score is on record? 0.216

Which composite z-score is reported for this compound? `COCCCN1C(=O)[C@@]2(Cc3ccccc31)c1ccccc1C(=O)N(Cc1ccccc1OC)[C@H]2c1ccc(CO)cc1` -0.108

Which measured composite z-score value corresponds to C=CCC(OC(C)=O)[C@@H]1[C@@H](N(Cc2ccc(-c3cccc(C(F)(F)F)c3)o2)C(=O)c2cccc3ccccc23)c2cc(OCCCO)ccc2N1C(=O)c1ccc2ccccc2c1 (stereo not given in full) ? -0.118

---

Biological target: NADPH oxidase 4 (Homo sapiens) (UniProt Q9NPH5)
Sequence (Q9NPH5 whole entry, looked up): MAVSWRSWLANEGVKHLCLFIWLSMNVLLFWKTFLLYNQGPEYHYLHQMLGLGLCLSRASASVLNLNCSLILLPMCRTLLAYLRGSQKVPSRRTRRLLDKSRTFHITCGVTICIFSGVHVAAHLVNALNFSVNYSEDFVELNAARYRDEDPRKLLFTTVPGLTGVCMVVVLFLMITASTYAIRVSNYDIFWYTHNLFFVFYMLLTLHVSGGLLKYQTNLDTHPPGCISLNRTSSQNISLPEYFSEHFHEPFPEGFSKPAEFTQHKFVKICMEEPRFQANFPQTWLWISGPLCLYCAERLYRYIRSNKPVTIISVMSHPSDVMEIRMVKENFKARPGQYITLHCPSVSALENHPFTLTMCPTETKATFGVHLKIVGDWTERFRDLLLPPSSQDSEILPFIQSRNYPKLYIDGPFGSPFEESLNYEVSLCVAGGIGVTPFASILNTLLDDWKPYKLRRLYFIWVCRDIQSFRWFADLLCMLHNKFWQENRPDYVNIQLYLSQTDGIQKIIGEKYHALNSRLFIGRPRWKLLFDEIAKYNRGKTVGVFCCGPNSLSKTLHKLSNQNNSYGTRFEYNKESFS
Test: NOX4-dependent H2O2 signal modulators, primary screen, NOX inhibitor project, cell-based, HEK293-NOX4, tetracycline-induced, Amplex Red fluorescence (AID 1160)
Conditions: 45 min, higher = more signal, called active from +8 up or from −8 down
z-score overview
Write the number on its own, no unit after it.

Completed entries (count: 5):
Molecule	Target or system	z-score
COC(=O)C(CC#Cc1ccc2c(c1)[C@]1(C(=O)N2)[C@H](c2ccc(O)cc2)N2[C@H](c3ccccc3)[C@H](c3ccccc3)OC(=O)[C@H]2[C@@H]1C(=O)N1CCc2cc(OC)c(OC)cc2C1)C(=O)OC	NADPH oxidase 4 (Homo sapiens) (UniProt Q9NPH5)	0.706
CCCC[C@H]1OB(O)C[C@H]2C1=C(COC)C[C@H]1C(=O)C=CC(=O)[C@H]12	NADPH oxidase 4 (Homo sapiens) (UniProt Q9NPH5)	-0.663
COCCn1c(C(=O)N2CCCC2)cc2c1C[C@H]1CN(C(=O)c3ccccc3)[C@@](Cc3ccccc3)(C(=O)OC)[C@@H]21	NADPH oxidase 4 (Homo sapiens) (UniProt Q9NPH5)	-0.6
C=C(COC)/C(=C/C[C@@H](OC(C)=O)c1ccccc1OCCO)c1cc(C(=O)OC)ccc1OC	NADPH oxidase 4 (Homo sapiens) (UniProt Q9NPH5)	-0.16
CCCCN1CC=CC23O[C@@H]4C=CCOC(=O)[C@@H]4[C@H]2C(=O)N(CCO)[C@@H]3C1=O (some centres not stated)	NADPH oxidase 4 (Homo sapiens) (UniProt Q9NPH5)	1.08

Data request, read-out z-score, for `CO[C@H]1O[C@H](CO)[C@@H](OC(=O)Nc2ccc3c(c2)OCO3)[C@@H]2OC(=O)[C@@H](Cc3ccccc3)C/C=C/C[C@H](Cc3ccccc3)C(=O)O[C@@H]12` -0.162

Can you share its z-score? I mean this molecule: `COCC(=C=CC[C@@H](O)c1ccc(OCCO)cc1)C[C@@H](O)COCc1ccccc1` -0.479

The measurements presented in this section are drawn from PubChem BioAssay.
